target: CB1 (rCB1) (Rattus norvegicus); assay: Single-point radioligand displacement screen; assay type: binding; settings: 10 µM, 1 µM or 300 nM by cell colour (not visible)
Think of 30% as a floor: if % 1H-CP-55,940 displacement (mean) from single point screen stands on it or above, it is TRUE; beneath it, FALSE.

- Molecule: "Cc1nc(CC2CC2)oc1-c1nc(Cc2ccc(OCc3ccccn3)cc2)no1"
  Tested System: "CB1 (rCB1) (Rattus norvegicus)"
  Answer Label: "FALSE"
- Molecule: "Cc1c(C(=O)N(C)CC2COc3ccccc3O2)cnn1-c1ccccc1 (stereo not drawn)"
  Tested System: "CB1 (rCB1) (Rattus norvegicus)"
  Answer Label: "FALSE"
- Molecule: "Cn1ncc2c(N3CCC(COCc4ccccc4)C3)nc(Cl)nc21 (stereo not drawn)"
  Tested System: "CB1 (rCB1) (Rattus norvegicus)"
  Answer Label: "FALSE"
- Molecule: "Cc1cc(C(=O)N2CC3(CCC3)[C@@H]3COC[C@@H]32)nn1-c1cccc(C(F)(F)F)c1"
  Tested System: "CB1 (rCB1) (Rattus norvegicus)"
  Answer Label: "TRUE"
- Molecule: "COC(=O)c1nc(N(C)CCOc2ccc(Br)cc2)sc1C"
  Tested System: "CB1 (rCB1) (Rattus norvegicus)"
  Answer Label: "FALSE"
- Molecule: "O=c1ccc(-c2nc(C(F)(F)c3ccc(F)cc3)no2)nn1-c1ccc(F)cc1"
  Tested System: "CB1 (rCB1) (Rattus norvegicus)"
  Answer Label: "TRUE"
- Molecule: "Cc1c(C(=O)OCC2CSc3ccccc3O2)cnn1Cc1cccc(C(F)(F)F)c1 (stereo not drawn)"
  Tested System: "CB1 (rCB1) (Rattus norvegicus)"
  Answer Label: "TRUE"
- Molecule: "O=C(OCc1nc2ccccc2o1)c1cnn(Cc2ccccc2Cl)c1"
  Tested System: "CB1 (rCB1) (Rattus norvegicus)"
  Answer Label: "TRUE"
- Molecule: "C=CCn1c(SC(C)COC)nc2cc(-c3ccccc3)sc2c1=O (stereo not drawn)"
  Tested System: "CB1 (rCB1) (Rattus norvegicus)"
  Answer Label: "FALSE"

* * *

molecular target: CB1 (rCB1) (Rattus norvegicus, UniProt P20272); test: Radioligand competition binding, [3H]-CP-55,940, rat brain membranes; conditions: rCB1
Sequence (P20272 whole entry): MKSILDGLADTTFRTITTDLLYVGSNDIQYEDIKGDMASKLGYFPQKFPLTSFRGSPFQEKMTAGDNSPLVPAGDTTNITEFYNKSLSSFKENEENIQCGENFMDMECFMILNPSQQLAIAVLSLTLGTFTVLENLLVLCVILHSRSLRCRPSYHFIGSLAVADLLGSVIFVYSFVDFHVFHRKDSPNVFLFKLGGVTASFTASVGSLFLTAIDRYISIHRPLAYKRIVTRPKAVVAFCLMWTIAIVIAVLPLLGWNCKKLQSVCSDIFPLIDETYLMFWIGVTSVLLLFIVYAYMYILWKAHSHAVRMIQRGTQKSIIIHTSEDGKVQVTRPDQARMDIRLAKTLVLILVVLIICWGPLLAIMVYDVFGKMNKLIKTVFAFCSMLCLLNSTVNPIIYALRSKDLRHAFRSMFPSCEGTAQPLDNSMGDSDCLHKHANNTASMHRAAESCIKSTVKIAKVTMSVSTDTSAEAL

- Molecule: "Cc1cc(C(=O)NC(C)(c2ccccc2)c2ccco2)nn1-c1cccc(C(F)(F)F)c1 (centres unmarked)"
  Tested System: "CB1 (rCB1) (Rattus norvegicus, UniProt P20272)"
  pKi [95% CI]: "8.1 [7.7 – 8.5]"
- Molecule: "Cc1cc(C(=O)NC(c2ccccc2)c2ccco2)nn1-c1cccc(C(F)(F)F)c1 (centres unmarked)"
  Tested System: "CB1 (rCB1) (Rattus norvegicus, UniProt P20272)"
  pKi [95% CI]: "6.9 [6.8 – 7.1]"
- Molecule: "Cn1nc(-c2nnc(C(C)(C)Oc3ccc(C(F)(F)F)cc3)o2)c2ccccc2c1=O"
  Tested System: "CB1 (rCB1) (Rattus norvegicus, UniProt P20272)"
  pKi [95% CI]: "6.79 [6.5 – 7.0]"
- Molecule: "COC(=O)[C@@H]1[C@@H]2CC[C@@H]2CN1C(=O)c1cc(C)n(-c2cccc(C(F)(F)F)c2)n1"
  Tested System: "CB1 (rCB1) (Rattus norvegicus, UniProt P20272)"
  pKi [95% CI]: "6.1 [5.9 – 6.3]"
- Molecule: "COC(=O)[C@@H]1[C@@H]2CCC[C@@H]2CN1C(=O)c1cc(C)n(-c2cccc(C(F)(F)F)c2)n1"
  Tested System: "CB1 (rCB1) (Rattus norvegicus, UniProt P20272)"
  pKi [95% CI]: "6.6 [6.4 – 6.8]"
- Molecule: "CC(=O)C(C)(NC(=O)c1cc(C)n(-c2cccc(C(F)(F)F)c2)n1)c1cccs1 (centres unmarked)"
  Tested System: "CB1 (rCB1) (Rattus norvegicus, UniProt P20272)"
  pKi [95% CI]: "7.9 [7.5 – 8.2]"
- Molecule: "COC(=O)[C@](C)(NC(=O)c1cc(C)n(-c2cccc(C(F)(F)F)c2)n1)c1cccs1"
  Tested System: "CB1 (rCB1) (Rattus norvegicus, UniProt P20272)"
  pKi [95% CI]: "7.1 [6.9 – 7.3]"
- Molecule: "COC(=O)C(c1ccco1)N(C)C(=O)c1cc(C)n(-c2cccc(C(F)(F)F)c2)n1 (centres unmarked)"
  Tested System: "CB1 (rCB1) (Rattus norvegicus, UniProt P20272)"
  pKi [95% CI]: "6.0 [5.8 – 6.2]"
- Molecule: "COC(=O)C(NC(=O)c1cc(-c2ccccc2)n(-c2cccc(C(F)(F)F)c2)n1)c1cccs1 (centres unmarked)"
  Tested System: "CB1 (rCB1) (Rattus norvegicus, UniProt P20272)"
  pKi [95% CI]: "7.7 [7.6 – 7.9]"
- Molecule: "Cc1cc(C(=O)NC(c2ccco2)c2ccco2)nn1-c1cccc(C(F)(F)F)c1"
  Tested System: "CB1 (rCB1) (Rattus norvegicus, UniProt P20272)"
  pKi [95% CI]: "7.0 [6.7 – 7.4]"
- Molecule: "Cc1c(C(=O)OCC2CSc3ccccc3O2)cnn1Cc1ccccc1 (centres unmarked)"
  Tested System: "CB1 (rCB1) (Rattus norvegicus, UniProt P20272)"
  pKi [95% CI]: "6.0 [5.78 – 6.21]"
- Molecule: "COC(=O)[C@@H]1[C@@H]2CCC[C@@H]2CN1C(=O)c1cc(C)n(-c2cccc(Cl)c2)n1 (racemic)"
  Tested System: "CB1 (rCB1) (Rattus norvegicus, UniProt P20272)"
  pKi [95% CI]: "5.9 [5.8 – 6.0]"
- Molecule: "COC(=O)C(NC(=O)c1cc(C)n(-c2cccc(C#N)c2)n1)c1ccsc1 (centres unmarked)"
  Tested System: "CB1 (rCB1) (Rattus norvegicus, UniProt P20272)"
  pKi [95% CI]: "6.1 [6.0 – 6.2]"
- Molecule: "COC(=O)C(NC(=O)c1cc(C)n(-c2cccc(C(F)(F)F)c2)n1)c1cccs1 (centres unmarked)"
  Tested System: "CB1 (rCB1) (Rattus norvegicus, UniProt P20272)"
  pKi [95% CI]: "7.4 [7.2 – 7.5]"
- Molecule: "Cc1cc(C(=O)N(C)C(c2ccco2)c2ccco2)nn1-c1cccc(C(F)(F)F)c1"
  Tested System: "CB1 (rCB1) (Rattus norvegicus, UniProt P20272)"
  pKi [95% CI]: "5.9 [5.7 – 6.0]"
- Molecule: "Cc1cc(C(=O)NC(C)(c2ccco2)c2ccco2)nn1-c1cccc(C(F)(F)F)c1"
  Tested System: "CB1 (rCB1) (Rattus norvegicus, UniProt P20272)"
  pKi [95% CI]: "8.1 [7.9 – 8.4]"
- Molecule: "Cc1cc(C(=O)N2CC3(CCC3)C2C2CCCO2)nn1-c1cccc(C(F)(F)F)c1 (centres unmarked)"
  Tested System: "CB1 (rCB1) (Rattus norvegicus, UniProt P20272)"
  pKi [95% CI]: "6.76 [6.5 – 7.03]"
- Molecule: "Cc1nn(Cc2ccc(Cl)cc2)c(C)c1C(=O)OCC1CSc2ccccc2O1 (centres unmarked)"
  Tested System: "CB1 (rCB1) (Rattus norvegicus, UniProt P20272)"
  pKi [95% CI]: "6.1 [5.8 – 6.4]"
- Molecule: "Cc1nc(CC2CC2)oc1-c1nc(Cc2cc3c(cc2Br)OCO3)no1"
  Tested System: "CB1 (rCB1) (Rattus norvegicus, UniProt P20272)"
  pKi [95% CI]: "5.39 [5.27 –5.52]"
- Molecule: "COC(=O)C(C)(NC(=O)c1cc(C)n(-c2cccc(C(F)(F)F)c2)n1)c1cccs1 (centres unmarked)"
  Tested System: "CB1 (rCB1) (Rattus norvegicus, UniProt P20272)"
  pKi [95% CI]: "8.7 [8.6 – 8.9]"

Origin of the recorded values: paper PMC11882969
